In this section, each of the compounds is paired with its reported MOR agonist activity ([35S]GTPγS binding), FLNA-Binding Compound as Agonist 1 μM.
Tested on: mu opiate receptor (MOR)
Experiment: MOR agonist activity using [35S]GTPγS binding assay in striatal membranes
Type: biochemical
Conditions: 1 μM compound
Give your result in % as a bare value.

For the record CC1CCC(C(C)C)C(OCC(O)CN2CCCc3ccccc32)C1 (stereo not drawn) [Compound A0068] , what value of MOR agonist activity ([35S]GTPγS binding), FLNA-Binding Compound as Agonist 1 μM is listed for mu opiate receptor (MOR)? 110.4

For OC(COc1ccc(Br)c(F)c1)CN1CCCCC1 (stereo not drawn) [Compound A0058] then? 244.3

Another compound to look at: CC1CCC(C(C)C)C(OCC(O)CN2CCSCC2)C1 (stereo not drawn) [Compound A0003] 276.0

====

System: mu opiate receptor (MOR)
Experiment: MOR agonist activity using [35S]GTPγS binding assay in striatal membranes
Assay type: biochemical
Details: Series C-1; 1 μM compound; [35S]GTPγS binding to Gαo, striatal membranes
# Concentration of FLNA-Binding Compound as Agonist 1 μM per entry
Report the figure in % without appending any unit label.

See these solved cases before continuing.
compound	units label	endpoint result
O=C(c1ccc([N+](=O)[O-])cc1)N1CCC2(CC1)OCCN2S(=O)(=O)c1ccc([N+](=O)[O-])cc1 [Compound C0033]	%	186.4
COC(=O)c1ccc(S(=O)(=O)N2CCC3(CC2)OCCN3S(=O)(=O)c2ccc(C(=O)OC)cc2)cc1 [Compound C0028]	%	132.4
COc1ccc(NC(=O)N2CCC3(CC2)OCCN3C(=O)Nc2ccc(OC)cc2)cc1 [Compound C0151M]	%	397.6

So what does the record say about Concentration of FLNA-Binding Compound as Agonist 1 μM for COc1ccc(S(=O)(=O)N2CCCC3(C2)OCCN3S(=O)(=O)c2ccc(OC)cc2)cc1 (centres unmarked) [Compound C0145M] ? 289.2

Consider next the compound CS(=O)(=O)c1ccc(S(=O)(=O)N2CCC3(CC2)OCCN3S(=O)(=O)c2ccc(S(C)(=O)=O)cc2)cc1 [Compound C0009] in the same way. 256.2

Entry CC(C)c1ccc(S(=O)(=O)N2CCC3(CC2)OCCN3S(=O)(=O)c2ccc(C(C)C)cc2)cc1 [Compound C0007] please 195.0

Then this compound: O=C(c1ccc([N+](=O)[O-])cc1)N1CCC2(CC1)OCCN2S(=O)(=O)c1ccc([N+](=O)[O-])cc1 [Compound C0022] 328.7

And then O=C1CN(Cc2ccccc2)C2(CCN(S(=O)(=O)c3cc(Cl)cc(Cl)c3O)CC2)N1 [Compound C0138M] , what is it? 183.9

====

Test system: mu opiate receptor (MOR)
Test: MOR agonist activity using [35S]GTPγS binding assay in striatal membranes
Type: biochemical
Conditions: Series C-1; 0.1 μM compound, relative to DAMGO
In this section we review reported % DAMGO (0.1 μM) values for a set of compounds.
Write the value in % as a bare number.

Examples with answers:
compound	endpoint result
O=S(=O)(c1cccc(OC(F)(F)F)c1)N1CCC2(CC1)OCCN2S(=O)(=O)c1cccc(OC(F)(F)F)c1 [Compound C0005]	105.4
O=C1CN(Cc2ccccc2)C2(CCN(S(=O)(=O)c3cc(Cl)c(O)c(Cl)c3)CC2)N1 [Compound C0139M]	106.2
COc1ccc(NC(=O)N2CCC3(CC2)OCCN3S(=O)(=O)c2ccc(OC)cc2)cc1 [Compound C0041]	110.1
CC(=O)c1ccc(S(=O)(=O)N2CCC3(CC2)NC(=O)CN3S(=O)(=O)c2ccc(C(C)=O)cc2)cc1 [Compound C0064]	124.2
O=C(c1ccc([N+](=O)[O-])cc1)N1CCC2(CC1)OCCN2S(=O)(=O)c1ccc([N+](=O)[O-])cc1 [Compound C0022]	113.5
O=S(=O)(c1ccc(Br)c(C(F)(F)F)c1)N1CCC2(CC1)OCCN2S(=O)(=O)c1ccc(Br)c(C(F)(F)F)c1 [Compound C0077]	109.5
CC(O)c1ccc(S(=O)(=O)N2CCC3(CC2)OCCN3S(=O)(=O)c2ccc(C(C)O)cc2)cc1 (stereo not drawn) [Compound C0051]	65.1
N#Cc1ccc(S(=O)(=O)N2CCC3(CC2)OCCN3S(=O)(=O)c2ccc(C#N)cc2)cc1 [Compound C0008]	41.4

Bench note: what % DAMGO (0.1 μM) did O=S(=O)(c1ccc(F)c(F)c1)N1CCC2(CC1)OCCN2S(=O)(=O)c1ccc(F)c(F)c1 [Compound C0072] show? 100.3

What about this compound? COc1ccc(C(=O)N2CCC3(CC2)OCCN3S(=O)(=O)c2ccc(OC)cc2)cc1 [Compound C0018] 110.7

====

Test system: mu opiate receptor (MOR)
Test: MOR agonist activity using [35S]GTPγS binding assay in striatal membranes
Format: biochemical
Conditions: Series C-1; 1 μM compound, relative to DAMGO
Description: To assess the mu opiate receptor (MOR) agonist activity of positive compounds from the FLNA screening, compounds were tested in a [^35S]GTPγS binding assay using striatal membranes. […] The immunocomplexes so formed were collected by incubation at 25° C. for 30 minutes with 40 μl of agarose-conjugated protein A/G beads and centrifugation at 5,000×g at 4° C. for 5 minutes. […] The radioactivity in the suspension was determined by liquid scintillation spectrometry.
Readings of % DAMGO (1 μM) for the listed compounds
Give the number first and the unit second.

A selection of reference data follows.
compound	assayed target	% DAMGO (1 μM)
CC(=O)c1ccc(C(=O)N2CCC3(CC2)OCCN3C(=O)c2ccc(C(C)=O)cc2)cc1	mu opiate receptor (MOR)	54.5%
COc1ccc(C(=O)N2CCC3(CC2)OCCN3C(=O)c2ccc(OC)cc2)cc1	mu opiate receptor (MOR)	109.7%
COc1ccc(NC(=O)N2CCC3(CC2)OCCN3S(=O)(=O)c2ccc(OC)cc2)cc1	mu opiate receptor (MOR)	111.7%
O=C1CN(Cc2ccccc2)C2(CCN(S(=O)(=O)c3cc(Cl)cc(Cl)c3O)CC2)N1 [Compound C0138M]	mu opiate receptor (MOR)	90.9%
CC(=O)c1ccc(C(=O)N2CCOC23CCN(S(=O)(=O)c2ccc(C(C)=O)cc2)CC3)cc1	mu opiate receptor (MOR)	67.5%

Suppose we examine the compound `O=S(=O)(c1ccccc1)N1CCC2(CC1)OCCN2S(=O)(=O)c1ccccc1` ; what % DAMGO (1 μM) value has been reported? 83.3%

What would you report for `O=S(=O)(c1ccc(Br)cc1C(F)(F)F)N1CCC2(CC1)OCCN2S(=O)(=O)c1ccc(Br)cc1C(F)(F)F` ? 83.8%

====

Test system: mu opiate receptor (MOR)
Assay: MOR agonist activity using [35S]GTPγS binding assay in striatal membranes
Type: biochemical
Conditions: 1 μM; average of two runs
quantity measured: MOR agonist activity, FLNA-Binding Compound as Agonist 1 μM (preliminary study) (%)
Answer format: numeric, % implied, no suffix.

// below: answered compounds
compound	endpoint result
O=S(=O)(c1ccc(OC(F)(F)F)cc1)N1CCOC12CCN(CC1CC1)CC2 [Compound 4]	165.2
C[C@@H](NC(=O)[C@@H](N)Cc1ccc(O)cc1)C(=O)NCC(=O)N(C)[C@@H](Cc1ccccc1)C(=O)NCCO [DAMGO, [D-Ala2, N-MePhe4, Gly-ol]-enkephalin, reference compound]	233.4

What value of measured MOR agonist activity, FLNA-Binding Compound as Agonist 1 μM (preliminary study) is listed for C=CCN1CCC2(CC1)OCCN2S(=O)(=O)c1ccc(C)cc1 [Compound 10] ? 191.8

What about Cc1ccc(S(=O)(=O)N2CCOC23CCN(CC2CCC2)CC3)cc1 [Compound 9] ? 197.2

Then Cc1ccc(S(=O)(=O)N2CCOC23CCN(CC2CC2)CC3)cc1 [Compound C0134M] ? 224.0

====

Tested on: mu opiate receptor (MOR)
Experiment: MOR agonist activity using [35S]GTPγS binding assay in striatal membranes
Assay type: biochemical
Details: Series C-1; 0.1 μM compound; [35S]GTPγS binding to Gαo, striatal membranes
Parameter: Concentration of FLNA-Binding Compound as Agonist 0.1 μM. Scope: all listed entries.
Provide only the numeric value, understood in %.

A selection of reference data follows.
compound	endpoint result
O=C(OCc1ccccc1)c1ccc(S(=O)(=O)N2CCC3(CC2)OCCN3S(=O)(=O)c2ccc(C(=O)OCc3ccccc3)cc2)cc1	167.1
O=S(=O)(c1ccc(C(F)(F)F)cc1)N1CCC2(CC1)OCCN2S(=O)(=O)c1ccc(C(F)(F)F)cc1	96.8

Checklist item: Concentration of FLNA-Binding Compound as Agonist 0.1 μM tested on mu opiate receptor (MOR), entry `CC(=O)c1ccc(C(=O)N2CCC3(CC2)OCCN3S(=O)(=O)c2ccc(C(C)=O)cc2)cc1` , value? 108.4

Would you mind doing CC(=O)c1ccc(S(=O)(=O)N2CCC3(CC2)NCC(=O)N3Cc2ccccc2)cc1 [Compound C0082M] as well? 228.1

Follow-up item: `CC(=O)c1ccc(C(=O)N2CCC3(CC2)OCCN3C(=O)c2ccc(C(C)=O)cc2)cc1` 68.2

Query `O=S(=O)(c1ccc(-c2ccccc2)cc1)N1CCC2(CC1)OCCN2S(=O)(=O)c1ccc(-c2ccccc2)cc1` next 136.5

Also check O=S(=O)(c1cccc2cccnc12)N1CCC2(CC1)OCCN2S(=O)(=O)c1cccc2cccnc12 [Compound C0143M] 81.0

The measured values listed here are drawn from patent US10363239B2.
